tested on: MCF-7; test: MTT cytotoxicity assay, MCF-7; format: cell-based, human; settings: MCF-7, 72 hours
pIC50: −log10 of the molar value.
MEASURE NAME: pIC50

Query: // pIC50 lookup, key: O=C1c2ccc3c4ccc5c6c(ccc(c7ccc(c2c37)C(=O)N1CCCN1CCOCC1)c64)C(=O)N(CCCN1CCOCC1)C5=O
Reply: < 4.00

---

test system: BT-20; assay: MTT cytotoxicity assay, BT-20; format: cell-based, human; conditions: BT-20, 72 hours
pIC50: −log10 of the molar value.
MEASURE NAME: pIC50

Query: Query the reported pIC50 for BT-20; item: O=C1c2ccc3c4ccc5c6c(ccc(c7ccc(c2c37)C(=O)N1CCCN1CCOCC1)c64)C(=O)N(CCCN1CCOCC1)C5=O
Reply: < 4.00
